ASSAY TARGET: 5-hydroxytryptamine receptor 1A (Mus musculus, UniProt Q64264)
Sequence (Q64264 whole entry): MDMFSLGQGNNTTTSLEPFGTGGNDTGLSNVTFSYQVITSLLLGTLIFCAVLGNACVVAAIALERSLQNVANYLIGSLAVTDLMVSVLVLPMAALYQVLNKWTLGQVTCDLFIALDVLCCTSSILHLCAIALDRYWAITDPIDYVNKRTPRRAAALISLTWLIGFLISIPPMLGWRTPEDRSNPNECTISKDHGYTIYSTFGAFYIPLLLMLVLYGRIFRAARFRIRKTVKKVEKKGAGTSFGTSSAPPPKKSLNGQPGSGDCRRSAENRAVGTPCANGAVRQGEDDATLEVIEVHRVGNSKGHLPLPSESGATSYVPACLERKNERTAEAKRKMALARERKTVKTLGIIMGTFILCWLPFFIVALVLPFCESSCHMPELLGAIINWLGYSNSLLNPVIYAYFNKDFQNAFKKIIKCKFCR
Below, Ki values reported for 5-hydroxytryptamine receptor 1A (Mus musculus, UniProt Q64264) across several publications.
OBSERVED PROPERTY: Ki (µM)

a = O=C1CC2CCC1C(N1CCCCC1)C2c1c[nH]c2ccccc12 (stereo in doubt; 10a)
b = O=C1CC2CCC1C(N1CCCCC1)C2c1ccccc1 (stereo unspecified)
c = CCS(=O)(=O)Nc1cccc(N2CCN(CCCCN3C(=O)C4CCCN4C3=O)CC2)c1 (stereo unspecified)
d = COc1ccccc1N1CCN(CCCCNC(=O)c2ccc(-c3ccc(C(C)=O)cc3)cc2)CC1
# desc sort on Ki across 4 compounds Write the labels in rank order as requested.
b, a, c, d
(b: 274 µM, a: 61 µM, c: 0.027 µM, d: 0.00316 µM)
